Consider the following compounds and their measured bioavailability readings.
assay remarks: in vivo
test conditions: dog, po
quantity kind: bioavailability (%)

compound="CN(C(=O)C(C)(C)c1cc(C(F)(F)F)cc(C(F)(F)F)c1)c1cnccc1-c1ccccc1Cl [Ic]" readout_unit=% val=16
compound="Cc1ccccc1-c1cc(N2CCN(C)CC2)ncc1N(C)C(=O)C(C)(C)c1cc(C(F)(F)F)cc(C(F)(F)F)c1 [Ib]" readout_unit=% val=75

###

assay remarks: Pharmacokinetic parameters in rats
test conditions: rat, in vivo, read-out: terminal half-life (converted)
quantity kind: half-life

molecule_smiles=Cc1ccccc1-c1cc(N2CCOCC2)ncc1N(C)C(=O)C(C)(C)c1cc(C(F)(F)F)cc(C(F)(F)F)c1 val="23 h"
molecule_smiles=CN(C(=O)C(C)(C)c1cc(C(F)(F)F)cc(C(F)(F)F)c1)c1cnccc1-c1ccccc1Cl val="11 h"
molecule_smiles=Cc1ccccc1-c1cc(N2CCN(C)CC2)ncc1N(C)C(=O)C(C)(C)c1cc(C(F)(F)F)cc(C(F)(F)F)c1 val="24 h"

// data source = patent US20020091265A1
